The molecules below have reported pIC50 for HPK1 (MAP4K1) (Homo sapiens, UniProt Q92918).
pIC50: −log10 of the molar value.

Solved cases below.
input-smiles: Cc1cc(F)c(NC(=O)c2cc(C(F)(F)F)ccn2)cc1C1=Cc2cnc(Nc3ccn(C)n3)nc2N2CCN=C12
endpoint: pIC50
result: > 7.00

input-smiles: Cc1cc(F)c(NC(=O)c2cccc(C(C)(C)C#N)n2)cc1C1=Cc2cnc(NC3COC3)nc2N2CCN=C12
endpoint: pIC50
result: 5.00 to 7.00

input-smiles: Cc1ccc(NC(=O)c2cc(C(F)(F)F)ccn2)cc1C1=Cc2cnc(Nc3ccnn3C)nc2N2CCN=C12
endpoint: pIC50
result: 5.00 to 7.00

input-smiles: Cc1cc(F)c(NC(=O)c2cc(C(C)(C)C#N)ccn2)cc1C1=Cc2cnc(NC3COC3)nc2N2CCN=C12
endpoint: pIC50
result: > 7.00

Moving on to another molecule below.
Specify pIC50 for `Cc1cc(F)c(NC(=O)c2cccc(C(C)(C)C#N)c2)cc1C1=Cc2cnc(NC3COC3)nc2N2CCN=C12` , system HPK1 (MAP4K1) (Homo sapiens, UniProt Q92918).
> 7.00
